B1: TPR 5TU (parent)
chain: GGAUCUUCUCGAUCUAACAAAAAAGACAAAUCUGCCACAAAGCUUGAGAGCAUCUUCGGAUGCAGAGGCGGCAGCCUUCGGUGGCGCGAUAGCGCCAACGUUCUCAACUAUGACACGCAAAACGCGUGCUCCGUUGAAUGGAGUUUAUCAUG

Variants of: B1
Experiment: polymerase ribozyme fitness, log enrichment relative to wild type (log ratio); higher = more active; in vitro selection for triplet polymerase activity
Variants at the floor of the assay were thinned out.
metric.name: polymerase ribozyme fitness (log ratio)
Number, no unit, nothing else.

Some entries whose results are on file:
residue.change	metric.name	measured
C10A A16U U33A A121U G141C	polymerase ribozyme fitness (log ratio)	-4.19
A16C G141A	polymerase ribozyme fitness (log ratio)	-0.406
C54G G84U	polymerase ribozyme fitness (log ratio)	-1.6
C85U U127C	polymerase ribozyme fitness (log ratio)	-2.51
G50C A119U	polymerase ribozyme fitness (log ratio)	-3.92

Query block: Returns the measured polymerase ribozyme fitness (log ratio) for the input variant. Input: U53A U144C U145G
Result block: -1.92

Query block: Try the variant G46A G84A A119C G136A A150G
Result block: -3.68
